These data points were gathered from ChEMBL document CHEMBL4359842.

tgt: Mitogen-activated protein kinase 10 (Homo sapiens)
Sequence (P53779 whole entry): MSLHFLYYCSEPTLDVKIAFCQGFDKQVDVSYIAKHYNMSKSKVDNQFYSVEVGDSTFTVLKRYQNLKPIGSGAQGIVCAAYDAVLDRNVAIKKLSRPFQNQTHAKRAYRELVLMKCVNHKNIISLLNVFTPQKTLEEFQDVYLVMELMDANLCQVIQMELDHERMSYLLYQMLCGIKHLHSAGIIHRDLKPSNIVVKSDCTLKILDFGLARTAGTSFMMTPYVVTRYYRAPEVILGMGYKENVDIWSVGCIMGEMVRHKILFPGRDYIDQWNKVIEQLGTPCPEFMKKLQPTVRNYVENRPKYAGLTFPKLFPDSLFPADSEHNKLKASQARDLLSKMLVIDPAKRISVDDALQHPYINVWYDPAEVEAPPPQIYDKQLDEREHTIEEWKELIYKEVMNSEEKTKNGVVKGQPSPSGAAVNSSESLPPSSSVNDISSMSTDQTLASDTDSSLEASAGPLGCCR
assay overview: Inhibition of recombinant human full-length JNK3 at 10 uM using ATF2 as substrate measured after 40 mins in presence of [gamma33P]ATP by scintillation counting analysis relative to control
measure name: inhibition (%)

INSERT INTO results (compound_string, measure_name, assay_result) VALUES
  ('Cc1ccc(/N=C2/NC(=O)/C(=C3/C(=O)Nc4ccccc43)S2)cc1C', 'inhibition', 27),
  ('Cc1c(Cl)cccc1/N=C1/NC(=O)/C(=C2/C(=O)N(C)c3ccccc32)S1', 'inhibition', 48),
  ('O=C1N/C(=N/c2cccc(Cl)c2)S/C1=C1\C(=O)Nc2ccc(I)cc21', 'inhibition', 83),
  ('O=C1Oc2ccccc2N/C1=C\C(=O)c1ccc([N+](=O)[O-])cc1', 'inhibition', 27),
  ('Cc1c(Cl)cccc1/N=C1/NC(=O)/C(=C2/C(=O)Nc3ccccc32)S1', 'inhibition', 92),
  ('CCc1ccc2c(c1)/C(=C1/S/C(=N\c3cccc(Cl)c3C)NC1=O)C(=O)N2', 'inhibition', 29),
  ('Cc1nc(C)c(C(=O)/C=C2\Nc3ccccc3OC2=O)o1', 'inhibition', 26),
  ('O=C1N/C(=N/c2cccc3ccccc23)S/C1=C1\C(=O)Nc2ccc(Br)cc21', 'inhibition', 93);

I = O=C1Nc2ccccc2N/C1=C\C(=O)c1cccc2ccccc12
II = O=C1Nc2ccc([N+](=O)[O-])cc2N/C1=C\C(=O)c1ccccc1
III = O=C1Oc2ccccc2N/C1=C\C(=O)c1cccs1
Ask | Provide the items ranked by increasing inhibition. Record the ranking as a list of labels in the requested order.
Reply | III, II, I

----------
tgt: Mitogen-activated protein kinase 10 (Homo sapiens)
assay overview: Inhibition of recombinant human full-length JNK3 at 10 uM using ATF2 as substrate measured after 40 mins in presence of [gamma33P]ATP by scintillation counting analysis relative to control
inhibition listing for selected compounds.

Sample answers from the record:
INSERT INTO results (compound_string, assay_result) VALUES
  ('O=C1N/C(=N\c2ccccc2Cl)S/C1=C\C=C\c1ccccc1', '> 50%'),
  ('COc1cc(-c2nc3ccccn3c2/N=C/c2c[nH]nc2-c2ccccc2)ccc1O', '> 50%');

Now take the following compound into account.
// inhibition lookup, compound = COc1ccc(-c2n[nH]cc2/C=N\NC(=O)c2ccccc2I)cc1OC , result: > 50%
